- Substrate: p-NP-C4
- condition parameters: pH 7.1; 25 °C
quantity: kcat/Km (M⁻¹ s⁻¹)
Express your answer in M⁻¹ s⁻¹, writing the number without its unit.

Here are 2 proteins together with their reported answers.
1) unnamed (protein) MKPENKLPVLDLISAEMKTVVNTLQPDLPPWPATGTIAEQRQYYTLERRFWNAGAPEMATRAYMVPTKYGQVETRLFCPQPDSPATLFYLHGGGFILGNLDTHDRIMRLLASYSQCTVIGIDYTLSPEARFPQAIEEIVAACCYFHQQAEDYQINMSRIGFAGDSAGAMLALASALWLRDKQIDCGKVAGVLLWYGLYGLRDSVTRRLLGGVWDGLTQQDLQMYEEAYLSNDADRESPYYCLFNNDLTREVPPCFIAGAEFDPLLADSRLLYQTLAAHQQPCEFKLYPGTLHAFLHYSRMMKTADEALRDGAQFFTAQL ... 6800
2) unnamed (protein) MKPENKLPVLDLISAEMKTVVNTLQPDLPPWPATGTIAEQRQYYTLERRFWNAGAPEMATRAYMVPTKYGQVETRLFCPQPDSPATLFYLHGGGFILGNLDTHDRIMRLLASYSQCTVIGIDYTLSPEARFPQAIEEIVAACCYFHQQAEDYQINMSRIGFAADSAGAMLALASALWLRDKQIDCGKVAGVLLWYGLYGLRDSVTRRLLGGVWDGLTQQDLQMYEEAYLSNDADRESPYYCLFNNDLTREVPPCFIAGAEFDPLLDDSRLLYQTLAAHQQPCEFKLYPGTLHAFLHYSRMMKTADEALRDGAQFFTAQL ... 5800

For unnamed (protein) MKPENKLPVLDLISAEMKTVVNTLQPDLPPWPATGTIAEQRQYYTLERRFWNAGAPEMATRAYMVPTKYGQVETRLFCPQPDSPATLFYLHGGGFILGNLDTNDRIMRLLASYSQCTVIGIDYTLSPEARFPQAIEEIVAACCYFHQQAEDYQINMSRIGFAGDSAGAMLALASALWLRDKQIDCGKVAGVLLWYGLYGLRDSVTRRLLGGVWDGLTQQDLQMYEEAYLSNDADRESPYYCLFNNDLTREVPPCFIAGAEFDPLLDDSRLLYQTLAAHQQPCEFKLYPGTLHAFLHYSRMMKTADEALRDGAQFFTAQL the protein record lists kcat/Km as 48400

For unnamed (protein) MKPENKLPVLDLISAEMKTVVNTLQPDLPPWPATGTIAEQRQYYTLERRFWNAGAPEMATRAYMVPTKYGQVETRLFCPQPDSPATLFYLHGGGFILGNLDTHDRIMRLLASYSQCTVIGIDYTLSPEARFPQAIEEIVAACCYFHQQAEDYQINMSRIGFAGASAGAMLALASALWLRDKQIDCGKVAGVLLWYGLYGLRDSVTRRLLGGVWDGLTQQDLQMYEEAYLSNDADRESPYYCLFNNDLTREVPPCFIAGAEFDPLLDDSRLLYQTLAAHQQPCEFKLYPGTLHAFLHYSRMMKTADEALRDGAQFFTAQL the protein record lists kcat/Km as 7
